Source of measurements: patent US5919770A

System: Human adenosarcoma tissue cell (HT1080)
assay: Inhibition on the extravasation of basement membrane (haptoinvasion, matrigel/FN filter)
Assay type: cell-based
condition-parameters: 1 μM
I'd be grateful if you could share measured No. of infiltrated cancer cell/field for these entries.
State the answer as a number, implicitly in cell/field.

The compound `CC(C)=CCC[C@](C)(O[C@@H]1O[C@H](CO[C@@H]2OC[C@H](O)[C@H](O)[C@H]2O)[C@@H](O)[C@H](O)[C@H]1O)[C@H]1CC[C@]2(C)[C@@H]1[C@H](O)C[C@@H]1[C@@]3(C)CC[C@H](O)C(C)(C)[C@@H]3CC[C@]12C` , when measured on Human adenosarcoma tissue cell (HT1080), yielded No. of infiltrated cancer cell/field of 125

The recorded No. of infiltrated cancer cell/field with Human adenosarcoma tissue cell (HT1080) for `CC(C)=CCC[C@](C)(O[C@@H]1O[C@H](CO)[C@@H](O)[C@H](O)[C@H]1O)[C@H]1CC[C@]2(C)[C@@H]1[C@H](O)C[C@@H]1[C@@]3(C)CC[C@H](O)C(C)(C)[C@@H]3CC[C@]12C` was 73

Assay Human adenosarcoma tissue cell (HT1080), sample CC(C)=CCC[C@](C)(O[C@@H]1O[C@H](CO[C@@H]2O[C@@H](CO)[C@H](O)[C@H]2O)[C@@H](O)[C@H](O)[C@H]1O)[C@H]1CC[C@]2(C)[C@@H]1[C@H](O)C[C@@H]1[C@@]3(C)CC[C@H](O)C(C)(C)[C@@H]3CC[C@]12C [Ginsenoside Mc] , No. of infiltrated cancer cell/field read: 114

Observed No. of infiltrated cancer cell/field on Human adenosarcoma tissue cell (HT1080), entry CC(C)=CCC[C@](C)(O)[C@H]1CC[C@]2(C)[C@@H]1[C@H](O)C[C@@H]1[C@@]3(C)CC[C@H](O)C(C)(C)[C@@H]3[C@@H](O)C[C@]12C [20(S)-protopanaxatriol] , equals 103
